# experimental_details: Biodistribution in ICR mice after an iv injection
# Format: in vivo
# experimental_conditions: Muscle, 1 hr after iv injection
measurement_type: % dose/g (% dose/g)
Report as a plain number; the unit % dose/g is understood.

Lookup: # input molecule: CNc1ccc(-c2ccc3nc(OCCOCCOCC[18F])ccc3c2)cc1 [[^18F]34a] ; wanted: its % dose/g
Found: 1.33

Lookup: Ok, now CNc1ccc2cc(-c3ccc(OCCOCCOCC[18F])cc3)ccc2c1 [[^18F]19a]
Found: 0.87

Lookup: Same lookup for CN(C)c1ccc(-c2ccc3nc(OCCOCCOCC[18F])ccc3c2)cc1 [[^18F]32a] , please.
Found: 1.09

Lookup: Moving on to the next molecule: `CNc1ccc(-c2ccc3cc(OCCOCCOCCF)ccc3c2)cc1`
Found: 0.92

###

Kindly state % dose/g for each of the entries shown.
# experimental_details: Biodistribution in ICR mice after an iv injection
# Assay type: in vivo
# experimental_conditions: Spleen, 1 hr after iv injection
Provide only the numeric value, understood in % dose/g.

Lookup: What value of % dose/g has been recorded for this entry: CNc1ccc2cc(-c3ccc(OCCOCCOCC[18F])cc3)ccc2c1 [[^18F]19a]
Found: 3.60

Lookup: Further, for CNc1ccc(-c2ccc3nc(OCCOCCOCC[18F])ccc3c2)cc1 [[^18F]34a] ?
Found: 1.89

Lookup: Please give the result for CN(C)c1ccc(-c2ccc3nc(OCCOCCOCC[18F])ccc3c2)cc1 [[^18F]32a] too.
Found: 1.64

Lookup: Would you kindly repeat that for `CNc1ccc(-c2ccc3cc(OCCOCCOCCF)ccc3c2)cc1` ?
Found: 1.81

###

# experimental_details: Biodistribution in ICR mice after an iv injection
# Assay type: in vivo
# experimental_conditions: Muscle, 2 min after iv injection
Kindly supply the reported % dose/organ values for the records listed here.
API: value field is a number in % dose/organ; no unit string.

Lookup: Which % dose/organ is reported for this compound? CNc1ccc(-c2ccc3nc(OCCOCCOCC[18F])ccc3c2)cc1 [[^18F]34a]
Found: 6.40

Lookup: How about CN(C)c1ccc(-c2ccc3nc(OCCOCCOCC[18F])ccc3c2)cc1 [[^18F]32a] ?
Found: 8.87

Lookup: Please do the same for CNc1ccc2cc(-c3ccc(OCCOCCOCC[18F])cc3)ccc2c1 [[^18F]19a] as well.
Found: 7.42

Lookup: Next entry: `CNc1ccc(-c2ccc3cc(OCCOCCOCCF)ccc3c2)cc1`
Found: 11.8

###

# experimental_details: Biodistribution in ICR mice after an iv injection
# Format: in vivo
# experimental_conditions: Lung, 2 hr after iv injection
# From the text: Biodistribution in ICR Mice After an iv Injection of [^18F][4-(6-{2-[2-(2-Fluoro-ethoxy)-ethoxy]-ethoxy}-naphthalen-2-yl)-phenyl]-methyl-amine in 1% EtOH/0.1% BSA in Water (% dose/organ, avg of 3 mice±SD) (% dose/g, avg of 3 mice±SD) Biodistribution in ICR Mice After an iv Injection of [^18F]19a in 3% EtOH/0.1% BSA in Water Biodistribution in ICR Mice After an iv Injection of [^18F]34a in 5% EtOH/0.1% BSA in Water […]
measurement_type: % dose/organ
A bare number is not enough; add the unit after it.

Lookup: Requested field: % dose/organ. Item: CNc1ccc(-c2ccc3nc(OCCOCCOCC[18F])ccc3c2)cc1 [[^18F]34a]
Found: 0.36 ± 0.05 % dose/organ

Lookup: Also CNc1ccc2cc(-c3ccc(OCCOCCOCC[18F])cc3)ccc2c1 [[^18F]19a] ?
Found: 0.45 ± 0.11 % dose/organ

Lookup: Can you check CN(C)c1ccc(-c2ccc3nc(OCCOCCOCC[18F])ccc3c2)cc1 [[^18F]32a] next?
Found: 0.27 ± 0.00 % dose/organ

Lookup: Then `CNc1ccc(-c2ccc3cc(OCCOCCOCCF)ccc3c2)cc1` ?
Found: 0.48 ± 0.16 % dose/organ

###

Please provide measured % dose/organ for the entries that follow.
# experimental_details: Biodistribution in ICR mice after an iv injection
# Assay type: in vivo
# experimental_conditions: Bone, 30 min after iv injection
Only the number, expressed in % dose/organ, is required.

Lookup: What value of % dose/organ has been recorded for this entry: `CNc1ccc(-c2ccc3cc(OCCOCCOCCF)ccc3c2)cc1`
Found: 3.36

Lookup: Quick one: CN(C)c1ccc(-c2ccc3nc(OCCOCCOCC[18F])ccc3c2)cc1 [[^18F]32a]
Found: 2.92

Lookup: // query: CNc1ccc(-c2ccc3nc(OCCOCCOCC[18F])ccc3c2)cc1 [[^18F]34a]
Found: 3.87

Lookup: Query CNc1ccc2cc(-c3ccc(OCCOCCOCC[18F])cc3)ccc2c1 [[^18F]19a] next
Found: 2.59

###

# experimental_details: Biodistribution in ICR mice after an iv injection
# Assay type: in vivo
# experimental_conditions: Spleen, 2 hr after iv injection
# Description: Biodistribution in ICR Mice After an iv Injection of [^18F][4-(6-{2-[2-(2-Fluoro-ethoxy)-ethoxy]-ethoxy}-naphthalen-2-yl)-phenyl]-methyl-amine in 1% EtOH/0.1% BSA in Water (% dose/organ, avg of 3 mice±SD) (% dose/g, avg of 3 mice±SD) Biodistribution in ICR Mice After an iv Injection of [^18F]19a in 3% EtOH/0.1% BSA in Water Biodistribution in ICR Mice After an iv Injection of [^18F]34a in 5% EtOH/0.1% BSA in Water […]
measurement_type: % dose/organ (% dose/organ)
Kindly answer with a numeric value in % dose/organ, unit omitted.

Lookup: State the recorded % dose/organ for this entry: `CNc1ccc(-c2ccc3cc(OCCOCCOCCF)ccc3c2)cc1`
Found: 0.19

Lookup: Entry CN(C)c1ccc(-c2ccc3nc(OCCOCCOCC[18F])ccc3c2)cc1 [[^18F]32a] please
Found: 0.09

Lookup: Param item: CNc1ccc(-c2ccc3nc(OCCOCCOCC[18F])ccc3c2)cc1 [[^18F]34a]
Found: 0.14

Lookup: Moving on to CNc1ccc2cc(-c3ccc(OCCOCCOCC[18F])cc3)ccc2c1 [[^18F]19a]
Found: 0.31

###

# experimental_details: Biodistribution in ICR mice after an iv injection
# Type: in vivo
# experimental_conditions: Spleen, 30 min after iv injection
measurement_type: % dose/organ

Lookup: # % dose/organ lookup, item `CNc1ccc(-c2ccc3cc(OCCOCCOCCF)ccc3c2)cc1`
Found: 0.23 ± 0.01 % dose/organ

Lookup: Repeat with CN(C)c1ccc(-c2ccc3nc(OCCOCCOCC[18F])ccc3c2)cc1 [[^18F]32a]
Found: 0.15 ± 0.03 % dose/organ

Lookup: Lookup CNc1ccc(-c2ccc3nc(OCCOCCOCC[18F])ccc3c2)cc1 [[^18F]34a]
Found: 0.21 ± 0.00 % dose/organ

Lookup: Item: CNc1ccc2cc(-c3ccc(OCCOCCOCC[18F])cc3)ccc2c1 [[^18F]19a]
Found: 0.53 ± 0.04 % dose/organ

###

# experimental_details: Biodistribution in ICR mice after an iv injection
# Format: in vivo
# experimental_conditions: Muscle, 2 min after iv injection
Exercise: for every item that follows, state its recorded % dose/g.
# output: bare number, implied unit % dose/g

Lookup: Would you mind telling me what % dose/g value was observed for CNc1ccc(-c2ccc3nc(OCCOCCOCC[18F])ccc3c2)cc1 [[^18F]34a] ?
Found: 0.65

Lookup: Also `CNc1ccc(-c2ccc3cc(OCCOCCOCCF)ccc3c2)cc1` ?
Found: 1.21

Lookup: Now consider CN(C)c1ccc(-c2ccc3nc(OCCOCCOCC[18F])ccc3c2)cc1 [[^18F]32a] .
Found: 0.83

Lookup: Another: CNc1ccc2cc(-c3ccc(OCCOCCOCC[18F])cc3)ccc2c1 [[^18F]19a]
Found: 0.77

###

# experimental_details: Biodistribution in ICR mice after an iv injection
# Format: in vivo
# experimental_conditions: Heart, 2 hr after iv injection
What % dose/organ was measured for each of the following?
Your answer should be a plain number; it is taken to be in % dose/organ.

Lookup: Sample CNc1ccc(-c2ccc3nc(OCCOCCOCC[18F])ccc3c2)cc1 [[^18F]34a] — what was its % dose/organ?
Found: 0.19

Lookup: Same for CNc1ccc2cc(-c3ccc(OCCOCCOCC[18F])cc3)ccc2c1 [[^18F]19a]
Found: 0.16

Lookup: Same question for `CNc1ccc(-c2ccc3cc(OCCOCCOCCF)ccc3c2)cc1` please.
Found: 0.19

Lookup: And then CN(C)c1ccc(-c2ccc3nc(OCCOCCOCC[18F])ccc3c2)cc1 [[^18F]32a] , what is it?
Found: 0.15

###

# experimental_details: Biodistribution in ICR mice after an iv injection
# Type: in vivo
# experimental_conditions: Heart, 2 min after iv injection
measurement_type: % dose/organ

Lookup: What measured % dose/organ goes with CNc1ccc(-c2ccc3nc(OCCOCCOCC[18F])ccc3c2)cc1 [[^18F]34a] ?
Found: 1.26 ± 0.20 % dose/organ

Lookup: Lookup CNc1ccc2cc(-c3ccc(OCCOCCOCC[18F])cc3)ccc2c1 [[^18F]19a]
Found: 0.63 ± 0.02 % dose/organ

Lookup: Entry `CNc1ccc(-c2ccc3cc(OCCOCCOCCF)ccc3c2)cc1` please
Found: 0.63 ± 0.08 % dose/organ

Lookup: Next entry: CN(C)c1ccc(-c2ccc3nc(OCCOCCOCC[18F])ccc3c2)cc1 [[^18F]32a]
Found: 1.36 ± 0.20 % dose/organ

The measurements presented in this section are drawn from patent US20100215579A1.
